Tested on: Veronica persica
EXPERIMENTAL PROTOCOL: Pre-emergence herbicidal activity against VERPE
Format: in vivo
ASSAY CONDITIONS: Veronica persica, 504 h, dosage 80 g/ha
Some molecules, each annotated with its measured pest or weed control at 80 g/ha.
The reply should be a number in %, with the unit left off.

Consider the worked cases shown below.
Lab book: pest or weed control at 80 g/ha of COC(=O)[C@H]1C[C@@H](NC(=O)C2(OC)CC(c3cc(C)cc(Br)c3)=NO2)CO1 (relative stereo) noted as 90

Lab book: pest or weed control at 80 g/ha of COC(=O)C1COCC1NC(=O)C1(OC)CC(c2cc(Cl)cc(Cl)c2)=NO1 (stereo not shown) noted as 100

Lab book: pest or weed control at 80 g/ha of COC(=O)C1=C(NC(=O)C2(C)CC(c3cc(F)cc(F)c3)=NO2)COC1 (stereo not shown) noted as 100

Field: next molecule
Lab book: pest or weed control at 80 g/ha of COC(=O)[C@H]1C[C@@H](NC(=O)C2(C)CC(c3cc(F)cc(F)c3)=NO2)CO1 (relative stereo) noted as 80

----------
Test system: Amaranthus retroflexus
EXPERIMENTAL PROTOCOL: Pre-emergence herbicidal activity against AMARE
Format: in vivo
ASSAY CONDITIONS: dosage 80 g/ha
ASSAY READOUT: Pre-emergence herbicidal activity against AMARE in %
A complete answer gives the number followed by the unit.

Consider the worked cases shown below.
Lab book: Pre-emergence herbicidal activity against AMARE in % of CC1(C(=O)NC2COC(C(=O)OCc3ccccc3)C2)CC(c2cc(F)cc(F)c2)=NO1 (mixture of isomers) [I-45] noted as 100%

Lab book: Pre-emergence herbicidal activity against AMARE in % of CC(C)OC(=O)C1CC(NC(=O)C2(C)CC(c3cc(F)cc(F)c3)=NO2)CO1 (centres unmarked) [I-44] noted as 90%

Lab book: Pre-emergence herbicidal activity against AMARE in % of CC(C)(C)OC(=O)C1CC(NC(=O)C2(C)CC(c3cc(F)cc(F)c3)=NO2)CO1 (mixture of isomers) [I-42] noted as 100%

Lab book: Pre-emergence herbicidal activity against AMARE in % of CCOC(=O)C1CC(NC(=O)C2(C)CC(c3cc(F)cc(F)c3)=NO2)CO1 (mixture of isomers) [I-43] noted as 90%

Lab book: Pre-emergence herbicidal activity against AMARE in % of CC1(C(=O)NC2COC(C(=O)O)C2)CC(c2cc(F)cc(F)c2)=NO1 (mixture of isomers) [I-41] noted as 90%

Lab book: Pre-emergence herbicidal activity against AMARE in % of COC(=O)C1CC(NC(=O)C2(C)CC(c3cc(F)cc(F)c3)=NO2)CO1 (mixture of isomers) [I-48] noted as 100%

New cases:
Lab book: Pre-emergence herbicidal activity against AMARE in % of COC(=O)C1CC(NC(=O)C2(C(C)(F)F)CC(c3cc(F)cc(F)c3)=NO2)CO1 (centres unmarked) [I-49] noted as 100%

Lab book: Pre-emergence herbicidal activity against AMARE in % of C=C[C@]1(C(=O)N[C@H]2CO[C@@H](C(=O)OC)C2)CC(c2cc(F)cc(F)c2)=NO1 (single isomer, unassigned) [I-11] noted as 100%
